Consider the following molecules; for each one, report its GI50.
System: SK-OV-3 ovarian
Test: NCI tumour cell line growth inhibition, 48 h

Look up GI50 for this molecule: O=[N+]([O-])c1ccc(Nc2ccccc2-c2ccccc2)c2nonc12
22000 nM

Consider the molecule C[n+]1c(/C=C\C=C\N2CCCCC2)sc2ccccc21 and give its measured GI50.
794 nM

Reported GI50, molecule CN(C)CCCOc1ccccc1NC1=C(Cl)C(=O)C(Nc2ccccc2OCCCN(C)C)=C(Cl)C1=O : ____
1660 nM

====

Test system: SK-OV-3 ovarian
Assay: NCI tumour cell line growth inhibition, 48 h
parameter measured: TGI

Quick one: TGI of CCOC(=O)c1cn(-c2ccccc2)c(=S)n2c1nc1ccccc12 ?
> 100 µM

So what's the measured TGI for this one? CCOc1ccc2nc(NC(=O)C(=O)C(C(=O)c3ccccc3-c3ccccc3)C3OC(=O)c4ccccc43)sc2c1 (stereo not given)
> 72.6 µM

Need TGI of CN(C)CCCOc1ccccc1NC1=C(Cl)C(=O)C(Nc2ccccc2OCCCN(C)C)=C(Cl)C1=O , thanks.
3.02 µM

Return reported TGI; argument: COC(=O)[C@H](Cc1ccccc1)NC(=O)c1ccc(CNC(=O)/C=C/c2ccc(-c3ccccc3)cc2)cc1
> 100 µM

// TGI lookup, key: CC12CC3C(CC1SCC(=O)O2)C3(C)C (stereo not given)
> 100 µM

Requested read-out: TGI. Entry: C=C1C(=O)O[C@H]2[C@H]1CC/C(CNC(=O)/C=C/c1ccc(Br)cc1)=C\CC[C@@]1(C)O[C@@H]21
12.5 µM

Fill in the blank: the reported TGI of Nc1nc(CCC(=O)Nc2cccc(C(F)(F)F)c2)cc(-c2cccc3ccccc23)n1 is ____.
> 100 µM

Data request, read-out TGI, for Cc1c2cc[nH]c(C(F)(F)F)c2cc2c1nc1ccccc12
> 125 µM

Please give the measured TGI for this compound: CCCCCCCCCCCOC(=S)NC(C)C
49.6 µM

Could you tell me which TGI is on file for c1csc(-c2ccc(-c3ccc(-c4ccc(-c5cccs5)s4)s3)s2)c1 ?
> 100 µM
